- assay target: HIV1 protease (Human immunodeficiency virus type 1 group M subtype B)
- assay comment: Test 3: inhibition of proteolytic activity of HIV-1 protease by scintillation proximity assay (SPA)
- Format: biochemical
- condition context: SPA; room temperature, 40 minutes; read-out: Enzyme Assays (SPA) IC50
Some molecules, each annotated with its measured IC50.

Reference set (3 entries):
1. CC(C)(C)NC(=O)c1ccccc1SC[C@H](O)[C@H](Cc1ccccc1)NC(=O)[C@H](CC(N)=O)NC(=O)c1ccc2ccccc2c1 | 390 nM
2. CC(C)(C)NC(=O)c1ccccc1OC[C@@H](O)[C@H](Cc1ccccc1)NC(=O)[C@H](CC(N)=O)NC(=O)c1cnc2ccccc2n1 | 48 nM
3. CCC(C)[C@H](NC(=O)c1ccc2ccccc2n1)C(=O)N[C@@H](Cc1ccccc1)[C@H](O)CSc1ccccc1C(=O)NC(C)(C)C (stereo partly drawn) | 132 nM

Req: Query IC50 for `CC(C)(C)NC(=O)c1cccc(SC[C@H](O)[C@H](Cc2ccccc2)NC(=O)[C@H](CC(N)=O)NC(=O)c2ccc3ccccc3n2)c1`
Resp: > 200 nM

Req: Look up and report measured IC50 for this entry: NC(=O)C[C@H](NC(=O)c1ccc2ccccc2n1)C(=O)N[C@@H](Cc1ccccc1)[C@@H](O)CSC1CCCC1C(=O)Nc1ccccc1 (stereo partly drawn)
Resp: > 200 nM

Req: State its IC50: `CC(C)(C)NC(=O)c1ccccc1SC[C@@H](O)[C@H](CC1CCCCC1)NC(=O)[C@H](CC(N)=O)NC(=O)c1ccc2ccccc2n1`
Resp: 230 nM

###

- assay target: HIV1 protease (Human immunodeficiency virus type 1 group M subtype B, UniProt P04585)
- assay comment: Test 3: inhibition of proteolytic activity of HIV-1 protease by scintillation proximity assay (SPA)
- Format: biochemical
- condition context: read-out: Enzyme Assays (SPA) IC50
endpoint name: pIC50
API: returns pIC50 as number; meaning -log10 of concentration in mol/L.

1) CC(C)(C)NC(=O)c1ccccc1OC[C@H](O)[C@H](Cc1ccccc1)NC(=O)[C@H](CC(N)=O)NS(=O)(=O)c1ccc2ccccc2c1 | 6.37
2) CC(C)(C)NC(=O)c1ccccc1OC[C@@H](O)[C@H](Cc1ccccc1)NC(=O)[C@H](CC(N)=O)NC(=O)c1ccc2c(c1)C(=O)c1ccccc1C2=O | 7.26

Alright, here's another compound for you.
Req: Let me know recorded pIC50 for `CC(C)(C)NC(=O)c1ccccc1OC[C@H](O)[C@H](Cc1ccccc1)NC(=O)[C@H](CC(N)=O)NC(=O)c1ccc2c(c1)C(=O)c1ccccc1C2=O` , thanks.
Resp: 7.08

###

- assay target: HIV1 protease (Human immunodeficiency virus type 1 group M subtype B, UniProt P04585)
- assay comment: Test 1: inhibition of proteolytic activity of HIV-1 protease (HPLC)
- Format: biochemical
- Parameters: proteolytic activity of HIV-1 protease
- condition context: HPLC; HIV Substrate III; read-out: Enzyme Assays (HPLC) IC50
- Protocol: TEST I-INHIBITION OF PROTEOLYTIC ACTIVITY OF HIV-1-PROTEASE The ability of compounds of the invention to inhibit the proteolytic activity of HIV-1 protease was determined by using the method of Louis, et al., Biochem. Biophys. Res. Comm. 159:87-94, (1989), which is herein incorporated by reference. […]
pIC50: −log10 of the molar value.
pIC50 reference

Worked cases, answers included:
1) CC(C)(C)NC(=O)c1ccccc1SC[C@H](O)[C@H](Cc1ccccc1)NC(=O)[C@H](Cc1ccccc1)NC(=O)c1ccc2ccccc2n1 | < 6.30
2) CC(C)(C)NC(=O)c1ccccc1SC[C@H](O)[C@H](Cc1ccccc1)NC(=O)[C@H](CC(N)=O)NC(=O)c1cccc[n+]1[O-] | < 7.00
3) NC(=O)C[C@H](NC(=O)c1ccc2ccccc2n1)C(=O)N[C@@H](Cc1ccccc1)[C@@H](O)CSC1CCCC1C(=O)Nc1ccccc1 (stereo partly drawn) [Compound 20] | 7.13

Req: // Input: `CC(C)(C)NC(=O)c1ccccc1SC[C@H](O)[C@H](Cc1ccccc1)NC(=O)[C@H](CCC(N)=O)NC(=O)OC(C)(C)C` . Output its pIC50 only.
Resp: < 7.00

Req: Item `CC(C)(C)NC(=O)c1ccccc1SC[C@H](O)[C@H](Cc1ccccc1)NC(=O)[C@H](CC(N)=O)NC(=O)c1cccnc1O` : provide pIC50
Resp: < 7.00

Req: Item `CC(C)(C)NC(=O)c1ccccc1SC[C@H](O)[C@H](Cc1ccccc1)NC(=O)[C@@H]1CCCN1C(=O)c1ccc2ccccc2n1` : provide pIC50
Resp: < 7.30

Req: Quote pIC50 reported for `NC(=O)C[C@H](NC(=O)c1ccc2ccccc2n1)C(=O)N[C@@H](Cc1ccccc1)[C@H](O)CSc1ccccc1C(=O)NC12CC3CC(CC(C3)C1)C2` please.
Resp: < 7.30

Req: Dear colleague, please send me the reported pIC50 for `COc1ccc(C[C@H](NC(=O)c2ccc3ccccc3n2)C(=O)N[C@@H](Cc2ccccc2)[C@@H](O)CSc2ccccc2C(=O)NC(C)(C)C)cc1` when you can.
Resp: < 7.00

Req: # return recorded pIC50 for entry `COc1ccc(C[C@H](NC(=O)OC(C)(C)C)C(=O)N[C@@H](Cc2ccccc2)[C@@H](O)CSc2ccccc2C(=O)NC(C)(C)C)cc1`
Resp: < 7.00

Req: Specify reported pIC50 for the molecule shown: `CC(C)(C)NC(=O)c1ccccc1OC[C@H](O)[C@H](Cc1ccccc1)NC(=O)[C@H](CC(N)=O)NC(=O)c1cnc2ccccc2n1`
Resp: 8.30

Req: State, in one line, measured pIC50 of `CC(C)(C)NC(=O)c1ccccc1SC[C@H](O)[C@H](Cc1ccccc1)NC(=O)[C@H](CC(N)=O)NC(=O)c1ccc(O)cn1`
Resp: < 7.00

Req: Identify pIC50 associated with the molecule `CC(C)(C)NC(=O)c1ccccc1OC[C@H](O)[C@H](Cc1ccccc1)NC(=O)[C@H](CC(N)=O)NC(=O)c1ccc2ccccc2[n+]1[O-]`
Resp: 7.30

Req: Answer with reported pIC50 of `CC(C)(C)NC(=O)c1ccccc1SC[C@H](O)[C@H](Cc1ccccc1)NC(=O)[C@H](CC(N)=O)NC(=O)c1ccc2ccccc2n1`
Resp: > 6.30

###

- assay target: HIV1 protease (Human immunodeficiency virus type 1 group M subtype B, UniProt P04585)
- assay comment: Test 3: inhibition of proteolytic activity of HIV-1 protease by scintillation proximity assay (SPA)
- Format: biochemical
- condition context: SPA; room temperature, 40 minutes; read-out: Enzyme Assays (SPA) IC50
pIC50: −log10 of the molar value.
endpoint name: pIC50

# example entries with known answers
1. Cc1c(C)c2c(c(C)c1O)CCC(C)(C(=O)N[C@@H](CC(N)=O)C(=O)N[C@@H](Cc1ccccc1)[C@@H](O)COc1ccccc1C(=O)NC(C)(C)C)O2 (some centres unmarked) | 6.61
2. CC(C)(C)NC(=O)c1ccccc1OC[C@H](O)[C@H](Cc1ccccc1)NC(=O)[C@H](CC(N)=O)NC(=O)c1nc2ccccc2nc1O | < 6.30
3. NC(=O)C[C@H](NC(=O)c1ccc2ccccc2n1)C(=O)N[C@@H](Cc1ccccc1)[C@H](O)CSC1CCCC1C(=O)Nc1ccccc1 (some centres unmarked) [Compound 21] | < 6.70

Req: State pIC50 (HIV1 protease (Human immunodeficiency virus type 1 group M subtype B, UniProt P04585)) of `NC(=O)C[C@H](NC(=O)c1ccc2ccccc2n1)C(=O)N[C@@H](Cc1ccccc1)[C@@H](O)CSc1ccccc1C(=O)NC12CC3CC(CC(C3)C1)C2` .
Resp: < 6.70

Req: Please report the measured pIC50 for `CC(C)(C)NC(=O)c1cccnc1OC[C@H](O)[C@H](Cc1ccccc1)NC(=O)[C@H](CC(N)=O)NC(=O)c1ccc2ccccc2n1` tested on HIV1 protease (Human immunodeficiency virus type 1 group M subtype B, UniProt P04585).
Resp: < 6.30

###

The compounds listed here are annotated with their inhibition at 0.5 µM.
- assay target: UniProtKB P04585
- assay comment: Test 3: inhibition of proteolytic activity of HIV-1 protease by scintillation proximity assay (SPA)
- Format: biochemical
- condition context: IC50 >500 nM; read-out: Enzyme Assays (SPA) % inhibition
Kindly provide the numeric value in % only, without the unit symbol.

Req: Answer with the recorded inhibition at 0.5 µM for the compound listed here: CCC(C)[C@H](NC(=O)c1ccc2ccccc2n1)C(=O)N[C@@H](Cc1ccccc1)[C@H](O)COc1ccccc1C(=O)NC(C)(C)C (stereo partly shown)
Resp: 46

Req: Determine from records and report inhibition at 0.5 µM for `CC(C)(C)NC(=O)c1ccccc1OC[C@H](O)[C@H](Cc1ccccc1)NC(=O)[C@H](CC(N)=O)NC(=O)c1nc2ccccc2nc1O`
Resp: 35

Req: Please give measured inhibition at 0.5 µM of the following entry: `CC(C)(C)NC(=O)c1ccccc1OC[C@@H](O)[C@H](Cc1ccccc1)NC(=O)[C@H](CC(N)=O)NC(=O)c1cnc2nc(N)nc(O)c2n1`
Resp: 36

Req: Answer with the recorded inhibition at 0.5 µM of `CC(C)(C)NC(=O)c1ccccc1OC[C@@H](O)[C@H](Cc1ccccc1)NC(=O)[C@H](CC(N)=O)NC(=O)c1nc2ccccc2nc1O` only.
Resp: 36
